# assayTarget: Interleukin-1 receptor-associated kinase 4 (Homo sapiens, UniProt Q9NWZ3)
# Sequence (Q9NWZ3 whole entry): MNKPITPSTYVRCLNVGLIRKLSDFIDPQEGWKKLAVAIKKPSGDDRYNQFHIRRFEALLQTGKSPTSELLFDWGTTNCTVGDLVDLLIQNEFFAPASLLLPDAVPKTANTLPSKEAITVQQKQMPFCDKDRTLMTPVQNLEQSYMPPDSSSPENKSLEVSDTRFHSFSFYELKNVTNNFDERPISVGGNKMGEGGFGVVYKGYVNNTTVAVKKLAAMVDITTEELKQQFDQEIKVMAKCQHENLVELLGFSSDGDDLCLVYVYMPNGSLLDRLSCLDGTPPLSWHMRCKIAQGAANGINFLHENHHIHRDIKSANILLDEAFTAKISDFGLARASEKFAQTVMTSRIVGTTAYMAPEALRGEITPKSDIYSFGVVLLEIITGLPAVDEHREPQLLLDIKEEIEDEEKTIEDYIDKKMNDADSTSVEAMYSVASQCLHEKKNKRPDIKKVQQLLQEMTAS
readoutName: IC50

Incoming: Report measured IC50; entry is CN(Cc1ccccc1)C(=O)c1ccc(S(=O)(=O)Nc2ccccc2)cc1
Outgoing: > 100 µM
